Item-by-item account of IC50
Tested on: Ramos cells with BTK WT
measurement-notes: Phosphor-BTK(Y223) assay, suspended cells
Type: cell-based
recorded-conditions: Homo sapiens, Ramos, phosphorylated BTK Y223, Ramos cells with BTK WT

Here are 10 molecules together with their reported answers.
>>> result("COc1ccc(F)cc1C(=O)NCc1ccc(-c2ncc(-c3ccncc3)c3[nH]nc(N)c23)cc1")
"> 50 nM"
>>> result("COc1ccc(F)cc1C(=O)NCc1ccc(-c2ncc(-c3cn4ccnc4cn3)c3[nH]nc(N)c23)cc1")
"5 to 10 nM"
>>> result("COc1ccc(F)cc1C(=O)NCc1ccc(-c2ncc(-c3ncccn3)c3[nH]nc(N)c23)cc1")
"5 to 10 nM"
>>> result("COc1ccc(F)cc1C(=O)NCc1ccc(-c2nc(C(C)C(F)(F)F)c(-c3ccc(C(F)(F)F)cn3)c3[nH]nc(N)c23)cc1 (centres unmarked)")
"> 50 nM"
>>> result("COc1ccc(F)cc1C(=O)NCc1ccc(-c2ncc(-c3cnc4cccnn34)c3[nH]nc(N)c23)cc1")
"> 50 nM"
>>> result("COc1ccc(F)cc1C(=O)NCc1ccc(-c2ncc(-c3ccc(N4CCN(C)CC4)cn3)c3[nH]nc(N)c23)cc1")
"≤ 5 nM"
>>> result("COc1ccc(F)cc1C(=O)NCc1ccc(-c2ncc(-c3ccc(CN4CCN(C)CC4)cn3)c3[nH]nc(N)c23)cc1")
"≤ 5 nM"
>>> result("COc1ccc(F)cc1C(=O)NCc1ccc(-c2nc(C3CCOCC3)cc3[nH]nc(N)c23)cc1")
"≤ 5 nM"
>>> result("COc1ccc(F)cc1C(=O)NCc1ccc(-c2ncc(-c3ccn(CC(=O)N(C)C)n3)c3[nH]nc(N)c23)cc1")
"5 to 10 nM"
>>> result("COc1ccc(F)cc1C(=O)NCc1ccc(-c2ncc(-c3cnn4ccccc34)c3[nH]nc(N)c23)cc1")
"> 50 nM"

query: Using the record for COc1ccc(F)cc1C(=O)NCc1ccc(-c2ncc(-c3ccc(C(C)(C)O)cn3)c3[nH]nc(N)c23)cc1 , state its measured IC50.
result: ≤ 5 nM

query: Name the recorded IC50 of the item COc1ccc(F)cc1C(=O)NCc1ccc(-c2nc(C(C)C(F)(F)F)c(-c3ccccc3)c3[nH]nc(N)c23)cc1 (centres unmarked) in your answer.
result: > 50 nM

query: Tell me IC50 reported for COc1ccc(F)cc1C(=O)NCc1ccc(-c2ncc(-c3ccc(N4CCN(C)C[C@@H]4C)cn3)c3[nH]nc(N)c23)cc1
result: ≤ 5 nM

query: Specify measured IC50 for COc1ccc(F)cc1C(=O)NCc1ccc(-c2ncc(-c3ccnn3C)c3[nH]nc(N)c23)cc1 .
result: > 50 nM

query: Look up IC50 of COc1ccc(F)cc1C(=O)NCc1ccc(-c2ncc(-c3ccc(C4COC4)cn3)c3[nH]nc(N)c23)cc1 and report it.
result: ≤ 5 nM

query: Assign IC50 to the following record: COc1ccc(F)cc1C(=O)NCc1ccc(-c2nc(-c3ccccc3Cl)cc3[nH]nc(N)c23)cc1
result: 5 to 10 nM

query: Quote IC50 reported for COc1ccc(F)cc1C(=O)NCc1ccc(-c2ncc(-c3nc4ccccc4s3)c3[nH]nc(N)c23)cc1 please.
result: ≤ 5 nM

query: Answer with the recorded IC50 of CCN1CCn2nc(-c3cnc(-c4ccc(CNC(=O)c5cc(F)ccc5OC)cc4)c4c(N)n[nH]c34)cc2C1 only.
result: ≤ 5 nM

query: Tell me its IC50 given COCCOc1ccc(-c2cnc(-c3ccc(CNC(=O)c4cc(F)ccc4OC)cc3)c3c(N)n[nH]c23)nc1 as the entry.
result: ≤ 5 nM

query: Respond only with IC50 recorded for COc1ccc(F)cc1C(=O)NCc1ccc(-c2ncc(-c3cc[nH]n3)c3[nH]nc(N)c23)cc1
result: 10 to 50 nM

query: For the molecule COc1ccc(F)cc1C(=O)NCc1ccc(-c2ncc(-c3cnc4ncccn34)c3[nH]nc(N)c23)cc1 , give its measured IC50 value.
result: > 50 nM

query: Note IC50 for the molecule shown: COc1ccc(F)cc1C(=O)NCc1ccc(-c2nc(C(C)C(F)(F)F)c(-c3cncnc3)c3[nH]nc(N)c23)cc1 (centres unmarked)
result: > 50 nM

query: Dear colleague, please send me the reported IC50 for COc1ccc(F)cc1C(=O)NCc1ccc(-c2ncc(-c3ncc(F)cn3)c3[nH]nc(N)c23)cc1 when you can.
result: 10 to 50 nM

query: Supply reported IC50 belonging to this molecule: COc1ccc(F)cc1C(=O)NCc1ccc(-c2nc(-c3ccccc3C)cc3[nH]nc(N)c23)cc1
result: > 50 nM

query: Query IC50 for COc1ccc(F)cc1C(=O)NCc1ccc(-c2ncc(-c3ncc(C(F)(F)F)cn3)c3[nH]nc(N)c23)cc1
result: 10 to 50 nM

query: For the molecule COc1ccc(F)cc1C(=O)NCc1ccc(-c2ncc(-c3cnc4ccccn34)c3[nH]nc(N)c23)cc1 , give its measured IC50 value.
result: > 50 nM

query: Could you please provide reported IC50 for COc1ccc(F)cc1C(=O)NCc1ccc(-c2nc(C3CCN(C(=O)Nc4ccccc4)CC3)cc3[nH]nc(N)c23)cc1 ? Thanks!
result: 5 to 10 nM

query: Find the measured IC50 of C=CC(=O)N1CCCC(c2cc3[nH]nc(N)c3c(-c3ccc(CNC(=O)c4cc(F)ccc4OC)cc3)n2)C1 (centres unmarked) and report it.
result: ≤ 5 nM

query: Please supply the value of reported IC50 for the item CNC(=O)Cn1ccc(-c2cnc(-c3ccc(CNC(=O)c4cc(F)ccc4OC)cc3)c3c(N)n[nH]c23)n1
result: ≤ 5 nM

###

Attribute: IC50
subject-of-test: BTK C481S (Homo sapiens, UniProt Q06187, C481S)
Sequence (Q06187 whole entry C481S): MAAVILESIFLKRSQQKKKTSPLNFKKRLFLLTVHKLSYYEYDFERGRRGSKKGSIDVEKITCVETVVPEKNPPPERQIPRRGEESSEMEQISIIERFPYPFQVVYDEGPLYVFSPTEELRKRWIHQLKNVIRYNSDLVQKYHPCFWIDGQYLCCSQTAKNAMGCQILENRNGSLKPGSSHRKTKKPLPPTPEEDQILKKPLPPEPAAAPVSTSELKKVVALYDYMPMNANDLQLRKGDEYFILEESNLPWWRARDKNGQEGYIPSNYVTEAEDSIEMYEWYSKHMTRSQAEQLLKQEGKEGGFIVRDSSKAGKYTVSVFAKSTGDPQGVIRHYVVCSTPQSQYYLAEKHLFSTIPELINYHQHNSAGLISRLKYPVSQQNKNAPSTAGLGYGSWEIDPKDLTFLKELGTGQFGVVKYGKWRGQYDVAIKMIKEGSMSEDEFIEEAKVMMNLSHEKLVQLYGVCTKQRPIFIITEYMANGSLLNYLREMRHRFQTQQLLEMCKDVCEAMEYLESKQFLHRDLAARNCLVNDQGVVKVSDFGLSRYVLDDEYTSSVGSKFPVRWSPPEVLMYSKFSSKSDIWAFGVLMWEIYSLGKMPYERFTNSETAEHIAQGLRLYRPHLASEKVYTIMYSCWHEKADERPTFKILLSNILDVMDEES
measurement-notes: Kinase activity inhibition assay (HTRF TK Kit)

Worked examples follow.
>>> result("COc1ccc(F)cc1C(=O)NCc1ccc(-c2ncc(-c3nccn4nccc34)c3[nH]nc(N)c23)cc1")
"1 to 5 nM"
>>> result("COc1ccc(F)cc1C(=O)NCc1ccc(-c2ncc(-c3ccc(C(=O)N4CCOCC4)cn3)c3[nH]nc(N)c23)cc1")
"≤ 1 nM"

query: Please give measured IC50 of the following entry: COc1ccc(F)cc1C(=O)NCc1ccc(-c2ncc(-c3ccn(CC(F)(F)F)n3)c3[nH]nc(N)c23)cc1
result: 1 to 5 nM

query: # return recorded IC50 for input COc1ccc(F)cc1C(=O)NCc1ccc(-c2nc(C(C)C(F)(F)F)c(-c3ccn(C)n3)c3[nH]nc(N)c23)cc1 (single isomer, unassigned) [Example 6-1]
result: 1 to 5 nM

query: Look up and report measured IC50 for this entry: COc1ccc(F)cc1C(=O)NCc1ccc(-c2ncc(-c3cnn(C)c3)c3[nH]nc(N)c23)cc1
result: 5 to 50 nM

query: Please report IC50 for the following compound: COc1ccc(F)cc1C(=O)NCc1ccc(-c2ncc(-c3ccncc3)c3[nH]nc(N)c23)cc1
result: 50 to 500 nM

query: Provide one value: measured IC50 of COc1ccc(F)cc1C(=O)NCc1ccc(-c2ncc(-c3cn(C)cn3)c3[nH]nc(N)c23)cc1
result: 1 to 5 nM

query: Identify measured IC50 corresponding to COc1ccc(F)cc1C(=O)NCc1ccc(-c2ncc(-c3ccn4nccc4n3)c3[nH]nc(N)c23)cc1
result: 1 to 5 nM

query: Respond only with IC50 recorded for COc1ccc(F)cc1C(=O)NCc1ccc(-c2nc(C(C)C(F)(F)F)c(-c3ccn(C)n3)c3[nH]nc(N)c23)cc1 (stereo not shown) [Example 6]
result: 1 to 5 nM

###

subject-of-test: BTK T474I (Homo sapiens, UniProt Q06187, T474I)
Sequence (Q06187 whole entry T474I): as the sequence (Q06187 whole entry C481S) above, with T474I, S481C counted along it
measurement-notes: Kinase activity inhibition assay (HTRF TK Kit)
Description: In this assay, the HTRF TK Kit (Catalog No. 62TK0PEC) provided by Cisbio was used to detect the inhibitory activity of compounds on BTK kinase, BTK T474I kinase and BTK C481 S kinase and the selectivity of compounds relative to EGFR, ITK and TEC kinases. […] The entire operation steps were carried out on ice, and the total reaction volume was 10µL. […] The resulting mixture was reacted at room temperature for 1 hour, and then the plate was assayed with a microplate reader. […]
measurement-type: IC50

>>> result("COc1ccc(F)cc1C(=O)NCc1ccc(-c2ncc(-c3ccc(F)cn3)c3[nH]nc(N)c23)cc1")
"50 to 500 nM"
>>> result("COc1ccc(F)cc1C(=O)NCc1ccc(-c2nc(C(C)C(F)(F)F)c(-c3ccn(C)n3)c3[nH]nc(N)c23)cc1 (stereo not shown) [Example 6]")
"5 to 50 nM"
>>> result("COc1ccc(F)cc1C(=O)NCc1ccc(-c2ncc(-c3cc4ncccn4n3)c3[nH]nc(N)c23)cc1")
"5 to 50 nM"

query: # assay system BTK T474I (Homo sapiens, UniProt Q06187, T474I): give IC50 of COc1ccc(F)cc1C(=O)NCc1ccc(-c2ncc(-c3ncc(C(F)(F)F)cn3)c3[nH]nc(N)c23)cc1
result: > 500 nM

query: Give IC50; test system BTK T474I (Homo sapiens, UniProt Q06187, T474I); molecule COc1ccc(F)cc1C(=O)NCc1ccc(-c2ncc(-c3ccc4c(n3)nc3n4C(C)COC3)c3[nH]nc(N)c23)cc1 (stereo not shown)
result: 50 to 500 nM

query: Fill in: IC50 on BTK T474I (Homo sapiens, UniProt Q06187, T474I), entry COc1ccc(F)cc1C(=O)NCc1ccc(-c2ncc(-c3ccc4c(n3)nc3n4CCOC3)c3[nH]nc(N)c23)cc1
result: > 500 nM

query: Identify measured IC50 obtained with BTK T474I (Homo sapiens, UniProt Q06187, T474I) for COc1ccc(F)cc1C(=O)NCc1ccc(-c2ncc(-c3cnn4cccnc34)c3[nH]nc(N)c23)cc1 .
result: 50 to 500 nM

query: Provide IC50, recorded with BTK T474I (Homo sapiens, UniProt Q06187, T474I), of COc1ccc(F)cc1C(=O)NCc1ccc(-c2ncc(-c3cnccn3)c3[nH]nc(N)c23)cc1
result: 50 to 500 nM

query: Under BTK T474I (Homo sapiens, UniProt Q06187, T474I): report IC50 of COc1ccc(F)cc1C(=O)NCc1ccc(-c2ncc(-c3ccc(OCCN4CCOCC4)cn3)c3[nH]nc(N)c23)cc1 .
result: 5 to 50 nM

query: Write IC50 of COc1ccc(F)cc1C(=O)NCc1ccc(-c2ncc(-c3ccc(S(C)(=O)=O)cn3)c3[nH]nc(N)c23)cc1 ; system used: BTK T474I (Homo sapiens, UniProt Q06187, T474I)
result: 5 to 50 nM

query: Return reported IC50 for target or system BTK T474I (Homo sapiens, UniProt Q06187, T474I), item COc1ccc(F)cc1C(=O)NCc1ccc(-c2ncc(-c3nccn4nccc34)c3[nH]nc(N)c23)cc1 .
result: 50 to 500 nM

query: Report IC50 on BTK T474I (Homo sapiens, UniProt Q06187, T474I) for this entry: COc1ccc(F)cc1C(=O)NCc1ccc(-c2ncc(-c3ccc(CN4CCOCC4)cn3)c3[nH]nc(N)c23)cc1
result: 50 to 500 nM
